What follows is literature data on Ki for D(2) dopamine receptor (Homo sapiens, UniProt P14416).
Recorded endpoint: Ki (nM)

The examples below pair each entry with its known result.
- Molecule: "Fc1ccccc1N1CCN(CCCCNc2cc(-c3ccccc3)ccn2)CC1"
  Ki / nM: 309
- Molecule: "O=C1COc2ccccc2N1CCCN1CCN(c2cccc(Cl)c2Cl)CC1"
  Ki / nM: 273
- Molecule: "c1ccc(N2CCN(CCCc3nc4ccccc4[nH]3)CC2)cc1"
  Ki / nM: 6170

A. CCCN(CCN1CCN(c2ccccc2)CC1)C1CCc2cc(O)c(O)cc2C1 (stereo not given)
B. CCN(CC)[C@H]1[C@H](CO)[C@@H]2CN(Cc3ccccc3)[C@@H](c3ccc(Br)cc3)[C@@H]21
Q: From the items above, decide which of A and B has the lower Ki reading. Please identify the chosen entry by its label.
Result: A
(A: 70.3 nM, B: 2000 nM)

1. O=C1CCc2ccc(OCCCCN3CCN(c4cccc5cccc(F)c45)CC3)nc2N1
2. Fc1ccc2c(C3CCN(CCCOc4ccc(CN5CCCCC5)cc4)CC3)noc2c1
Q: Select one: 1 or 2 . Criterion: greater recorded Ki. Please identify the chosen entry by its label.
Result: 2
(2: 10.8 nM, 1: 1.7 nM)

P. COc1ccccc1N1CCN(CCCCOc2ccc3scnc3c2)CC1
Q. COc1ccccc1N1CCN(CCCNC(=O)Cc2cccc3ccccc23)CC1
Q: Select one: P or Q . Criterion: greater recorded Ki. Please identify the chosen entry by its label.
Result: Q
(Q: 44 nM, P: 3.24 nM)

====

What follows is literature data on Ki for D(2) dopamine receptor (Homo sapiens).
Recorded endpoint: Ki (nM)

The examples below pair each entry with its known result.
- Molecule: "COc1cccc(OC)c1-c1cccc2c1-c1cccc3c1[C@@H](C2)N(C)CC3"
  Target of assay: "D(2) dopamine receptor (Homo sapiens)"
  Recorded endpoint: "Ki"
  Data value: 2030
- Molecule: "COc1ccccc1C1CC1CNCCCOc1ccc2c(c1)NC(=O)CC2 (stereo unspecified)"
  Target of assay: "D(2) dopamine receptor (Homo sapiens)"
  Recorded endpoint: "Ki"
  Data value: 126
- Molecule: "CN(C)c1ccc(Cc2ccc3c4c2-c2c(ccc(O)c2O)C[C@H]4N(C)CC3)cc1"
  Target of assay: "D(2) dopamine receptor (Homo sapiens)"
  Recorded endpoint: "Ki"
  Data value: 79
- Molecule: "CCC1(CC)CC(OCCCNCc2cccc(Cl)c2Cl)(c2ccccn2)CCO1 (stereo unspecified)"
  Target of assay: "D(2) dopamine receptor (Homo sapiens)"
  Recorded endpoint: "Ki"
  Data value: 13400
- Molecule: "CC1(c2cccc3ccccc23)NC(=O)N(CC(O)CN2CCN(C(c3ccccc3)c3ccccc3)CC2)C1=O (stereo unspecified)"
  Target of assay: "D(2) dopamine receptor (Homo sapiens)"
  Recorded endpoint: "Ki"
  Data value: 273
- Molecule: "O=C1CCc2cccc(F)c2N1CCCN1CCC(n2c(=O)[nH]c3ccccc32)CC1"
  Target of assay: "D(2) dopamine receptor (Homo sapiens)"
  Recorded endpoint: "Ki"
  Data value: 95
- Molecule: "CCCCC(Oc1cc(Cl)cc(Cl)c1)c1nc(N)nc(N2CCN(C)CC2)n1 (racemic)"
  Target of assay: "D(2) dopamine receptor (Homo sapiens)"
  Recorded endpoint: "Ki"
  Data value: 270
- Molecule: "Cn1c(=O)cnn(CCCCN2CCN(c3ccccc3OCCF)CC2)c1=O"
  Target of assay: "D(2) dopamine receptor (Homo sapiens)"
  Recorded endpoint: "Ki"
  Data value: 37.1

1. COc1ccc2oc(C(=O)NCCC(F)CN3CCN(c4cccc(Cl)c4Cl)CC3)cc2c1 (stereo unspecified)
2. c1ccc(N2CCN(CCCn3ccc4ccccc43)CC2)cc1
3. CC(C)OC(=O)N[C@H]1CC[C@H](CCN2CCc3ccccc3C2)CC1
4. N#Cc1ccc(CNC(=O)CCCCCN2CCN(c3ccccc3-c3ccccc3)CC2)cc1
Q: Order by Ki, ascending. The response must list the labels following the requested ordering.
Result: 4, 1, 2, 3
(4: 142 nM, 1: 279 nM, 2: 724 nM, 3: 1480 nM)

A. COc1ccccc1N1CCN(CC(O)CN2C(=O)NC(C)(c3ccccc3)C2=O)CC1.Cl (racemic)
B. Cc1nc(N)sc1CCCN/C(N)=N/C(=O)NCC(C)C1CCCCC1 (stereo unspecified)
Q: Select one: A or B . Criterion: greater recorded Ki. Please identify the chosen entry by its label.
Result: A

A. CCCN(CCC)C1COc2c(cccc2-c2ccc(C(F)(F)F)cc2)C1 (stereo unspecified)
B. CC(C)(C)OC(=O)NCCCN1CCC(O)(c2ccc(Cl)cc2)CC1
Q: From the items above, decide which of A and B has the lower Ki reading. Please identify the chosen entry by its label.
Result: A
(A: 763 nM, B: 1350 nM)

====

pKi: −log10 of the molar value.
What follows is literature data on pKi for D(2) dopamine receptor (Homo sapiens).
Recorded endpoint: pKi

I. O=S(=O)(NC1CCN(CCOc2ccccc2-c2ccccc2)CC1)c1ccc(F)c(F)c1
II. Fc1ccc2c(C3CCN(CCCOc4ccc(CN5CCCCC5)cc4F)CC3)noc2c1
III. COc1ccccc1N1CCN(CCCCNC(=O)/C=C/c2ccc(F)cc2)CC1
Q: Provide the items ranked by increasing pKi. The response must list the labels following the requested ordering.
Result: I, III, II
(I: 7.20, III: 7.57, II: 7.99)

====

What follows is literature data on pKi for D(2) dopamine receptor (Homo sapiens, UniProt P14416).
pKi: −log10 of the molar value.
Recorded endpoint: pKi

The examples below pair each entry with its known result.
- Compound: "CCc1cccc(N2CCN(CCCCNC(=O)c3c(C)nc4sccn34)CC2)c1Cl"
  pKi: 8.33
- Compound: "COc1ccc2c(c1)CCN(C)C2Cc1ccccc1C (stereo not given)"
  pKi: 5.13
- Compound: "O=C(NC1CCc2cc(CCN3CCN(c4nsc5ccccc45)CC3)ccc21)c1ccc(F)cc1 (stereo not given)"
  pKi: 8.00
- Compound: "Cc1c(-c2ccccc2)cnn1C1CCN(Cc2cccc(Cl)c2)CC1"
  pKi: 6.43
- Compound: "O=S(=O)(NC1CCN(CCOc2ccccc2-c2ccccc2)C1)c1cccs1 (stereo not given)"
  pKi: 7.80
- Compound: "O=S(=O)(c1cccc2ncccc12)N1CCC(CCN2CCN(c3ccc(Cl)cc3)CC2)CC1"
  pKi: 6.85

P. CC(C)CS(=O)(=O)n1ccc2c(-c3ccc(O)cc3)cc(N3CCN(C)CC3)nc21
Q. O=c1[nH]c2ccc3c(c2[nH]1)O[C@H](CNCc1ccccc1)CC3
R. COc1ccccc1N1CCN(CCCCNC(=O)c2ccc(-c3ccc(S(C)(=O)=O)cc3)cc2)CC1
Q: Order by pKi, ascending. The response must list the labels following the requested ordering.
Result: P, Q, R

====

What follows is literature data on pKi for D(2) dopamine receptor (Homo sapiens, UniProt P14416).
pKi: −log10 of the molar value.
Recorded endpoint: pKi

The examples below pair each entry with its known result.
- Compound: "c1ccc(N2CCN(CCCn3cnc4ccccc43)CC2)cc1"
  pKi: 4.92
- Compound: "CCOc1ccccc1C(=O)NC1CCN(CCOc2cccc(F)c2)CC1"
  pKi: 7.12
- Compound: "COc1ccc2c(c1)CCN(C)CCCc1ccccc1C2"
  pKi: 7.06

A. CCCCCN(CCc1ccccc1)CCc1cccc(O)c1
B. c1ccc(N2CCN(C3CCC(Nc4ncccn4)CC3)CC2)cc1 (stereo in doubt; 19)
Q: Select one: A or B . Criterion: greater recorded pKi. Please identify the chosen entry by its label.
Result: B
(B: 6.80, A: 5.85)

1. O=S(=O)(NC1CCN(CCOc2ccccc2)CC1)c1cccs1
2. O=C(NCCC(F)CN1CCN(c2cccc(Cl)c2Cl)CC1)c1cc2ccccc2[nH]1 (configuration not stated)
3. COc1ccccc1N1CCN(Cc2ccccc2CNC(=O)/C=C/c2ccccc2)CC1
4. FC(F)(F)c1cccc(N2CCN(CCCCNc3cc(-c4ccccc4)ccn3)CC2)c1
Q: List these items ordered by pKi, big to small. The response must list the labels following the requested ordering.
Result: 3, 1, 4, 2

I. C[C@H]1Cc2c([nH]c3ccccc23)Cc2ccccc2CCN1C
II. CN1CCN(c2nc(N)nc(CSc3ccccc3Cl)n2)CC1
Q: Select one: I or II . Criterion: greater recorded pKi. Please identify the chosen entry by its label.
Result: I

1. CCC(Oc1cc(Cl)cc(Cl)c1)c1nc(N)nc(N2CCN(C)CC2)n1 (racemic)
2. COc1ccccc1N1CCN(CCCN2C(=O)COc3ccccc32)CC1
3. CCCN1CCO[C@@H]2c3cc4c(cc3CC[C@H]21)CCOC4=O
Q: List these items ordered by pKi, big to small. The response must list the labels following the requested ordering.
Result: 2, 1, 3
(2: 7.37, 1: 6.43, 3: 5.83)
